experiment: Area under the curve in rats by administering perorally; assay type: ADME; details: rat, in vivo, po
Measured AUC accompanies every entry in the list below.
Give the quantity in µg/h/mL, number only.

O=C(Cc1cc[n+]([O-])cc1)N1CCC([C@@H]2c3ncc(Br)cc3C=Cc3cc(Cl)cc(Br)c32)CC1 :: 15.5
NC(=O)N1CCC(CC(=O)N2CCC([C@H]3c4ncc(Br)cc4CCc4cc(Cl)cc(Br)c43)CC2)CC1 [LONAFARNIB] :: 24.1
CS(=O)(=O)N1CCC([C@@H]2c3ncc(Br)cc3C=Cc3cc(Cl)cc(Br)c32)CC1 :: 45.4

Turning now to a further record.
Which AUC is reported for this molecule? NC(=O)N1CCC(CC(=O)N2CCC([C@@H]3c4ncc(Br)cc4C=Cc4cc(Cl)cc(Br)c43)CC2)CC1
7
